Documented pest or weed control at 50 ppm across a set of compounds
- Tested on: Mycosphaerella graminicola; Anamorph: Septoria tritici; Bayer Code SEPTTR (standard laboratory isolate, SI SEPTTR)
- run.description: Type A (high volume) assay, leaf blotch of wheat, standard laboratory SEPTTR isolate (SI SEPTTR)
- Format: in vivo, Mycosphaerella graminicola on wheat plants (variety Yuma)
- run.parameters: Zymoseptoria tritici, 24 h, standard laboratory isolate; high volume; 50 ppm; 1 Day Protectant; wheat (Yuma); read-out: Disease Control, SI SEPTTR Type A Assay (50 ppm) 1 DP

compound: OC(c1cncnc1)(c1ccc(-c2ccc(Cl)cc2)cn1)C1CC1 (centres unmarked)
pest or weed control at 50 ppm: 80 to 100%
//
compound: CC(C)(C)C(O)(c1cncnc1)c1ccc(-c2ccc3c(c2)CCCO3)cn1 (centres unmarked)
pest or weed control at 50 ppm: 80 to 100%
//
compound: OC(CCc1ccc(Cl)cc1)(Cn1cnnn1)c1ccc(Oc2ccc(C(F)(F)F)cn2)cn1 (centres unmarked)
pest or weed control at 50 ppm: 60 to 79%
//
compound: CC(C)C(O)(Cc1cncnc1)c1ccc(-c2ccc(Cl)cc2)cn1 (centres unmarked)
pest or weed control at 50 ppm: 80 to 100%
//
compound: OC(c1cncnc1)(c1ccc(Oc2ccc(Cl)cc2)cn1)C1CC1 (centres unmarked)
pest or weed control at 50 ppm: 80 to 100%
//
compound: CC(C)(C)C(O)(c1cncnc1)c1ccc(-c2ccc(F)cc2)cn1 (centres unmarked)
pest or weed control at 50 ppm: 80 to 100%
//
compound: OC(c1cccnc1)(c1ccc(-c2ccc(OC(F)(F)F)cc2)cn1)C1CC1 (centres unmarked)
pest or weed control at 50 ppm: 80 to 100%
//
compound: C=CCCC(O)(c1cncnc1)c1ccc(Oc2ccc(Cl)cc2)cn1 (centres unmarked)
pest or weed control at 50 ppm: 80 to 100%
//
compound: CC(C)(C)C(O)(c1ccc(-c2ccc(OC(F)F)cc2)cn1)c1cncs1 (centres unmarked)
pest or weed control at 50 ppm: 60 to 79%
//
compound: OC(Cc1ccc(Cl)cc1F)(c1cccnc1)c1ccc(-c2ccc(OC(F)(F)F)cc2)cn1 (centres unmarked)
pest or weed control at 50 ppm: 80 to 100%
//
compound: OC(c1cncnc1)(c1ccc(Oc2ccc(C(F)(F)F)cn2)cn1)C1CC1 (centres unmarked)
pest or weed control at 50 ppm: < 40%
//
compound: COc1ncncc1C(O)(c1ccc(-c2ccc(C(F)(F)F)nc2)cn1)C(C)(C)C (centres unmarked)
pest or weed control at 50 ppm: 80 to 100%
//
compound: Cc1ncncc1C(O)(c1ccc(-c2ccc(OC(F)(F)F)cc2F)cn1)C(C)(C)C (centres unmarked)
pest or weed control at 50 ppm: 80 to 100%
//
compound: COc1ccc(-c2ccc(C(O)(c3cncnc3)C(C)(C)C)nc2)c(OC(F)(F)F)c1 (centres unmarked)
pest or weed control at 50 ppm: 80 to 100%
//
compound: OC(C#CC1CC1)(c1cncnc1)c1ccc(Oc2ccc(C(F)(F)F)cc2)cn1 (centres unmarked)
pest or weed control at 50 ppm: 40 to 59%
//
compound: Cc1cc(C2(C#N)CC2)ccc1-c1ccc(C(O)(c2cncnc2)C(C)(C)C)nc1 (centres unmarked)
pest or weed control at 50 ppm: 80 to 100%
//
compound: CC(C)(C)C(O)(c1cncnc1)c1ccc(-c2ccc(Cl)cc2)cn1 (centres unmarked)
pest or weed control at 50 ppm: 80 to 100%

---

- Tested on: Mycosphaerella graminicola; Anamorph: Septoria tritici; Bayer Code SEPTTR (standard laboratory isolate, SI SEPTTR)
- run.description: Type A (high volume) assay, leaf blotch of wheat, standard laboratory SEPTTR isolate (SI SEPTTR)
- Assay type: in vivo, Mycosphaerella graminicola on wheat plants (variety Yuma)
- run.parameters: Zymoseptoria tritici, 72 h, standard laboratory isolate; high volume; 50 ppm; 3 Day Curative; wheat (Yuma); read-out: Disease Control, SI SEPTTR Type A Assay (50 ppm) 3 DC
Documented pest or weed control at 50 ppm across a set of molecules

molecule: OC(c1cncnc1)(c1ccc(Oc2ccc(Cl)nc2)cn1)C1CC1 (stereo not drawn) [Compound 11]
pest or weed control at 50 ppm: 40 to 59%
//
molecule: OC(CCc1ccc(Cl)cc1)(Cn1cnnn1)c1ccc(Oc2ccc(C(F)(F)F)cn2)cn1 (stereo not drawn) [Compound 15]
pest or weed control at 50 ppm: 40 to 59%
//
molecule: OC(C#CC1CC1)(c1cncnc1)c1ccc(Oc2ccc(Cl)cc2)cn1 (stereo not drawn) [Compound 40]
pest or weed control at 50 ppm: 60 to 79%
//
molecule: CC(C)C(O)(c1cncnc1)c1ccc(Oc2ccc(C#N)cc2)cn1 (stereo not drawn) [Compound 16]
pest or weed control at 50 ppm: 80 to 100%
//
molecule: OC(c1cncnc1)(c1ccc(Oc2ccc(OC(F)(F)F)cc2)cn1)C1CC1 (stereo not drawn) [Compound 8]
pest or weed control at 50 ppm: 80 to 100%
//
molecule: CC(C)C(O)(c1cncnc1)c1ccc(-c2ccc(OC(F)(F)F)cc2)cn1 (stereo not drawn) [Compound 63]
pest or weed control at 50 ppm: 80 to 100%
//
molecule: CC(C)C(O)(c1cncnc1)c1ccc(Oc2ccc(Cl)cc2)cn1 (stereo not drawn) [Compound 6]
pest or weed control at 50 ppm: 80 to 100%
//
molecule: Cc1ccc(Oc2ccc(C(O)(C#CC(C)(C)C)c3cncnc3)nc2)nc1 (stereo not drawn) [Compound 50]
pest or weed control at 50 ppm: 60 to 79%
//
molecule: CC(C)(C)C#CC(O)(c1cncnc1)c1ccc(Oc2ccc(Cl)cn2)cn1 (stereo not drawn) [Compound 49]
pest or weed control at 50 ppm: 80 to 100%

---

- Test system: Mycosphaerella graminicola; Anamorph: Septoria tritici; Bayer Code SEPTTR (standard laboratory isolate, SI SEPTTR)
- run.description: Type A (high volume) assay, leaf blotch of wheat, standard laboratory SEPTTR isolate (SI SEPTTR)
- Assay type: in vivo, Mycosphaerella graminicola on wheat plants (variety Yuma)
- run.parameters: Zymoseptoria tritici, 24 h, standard laboratory isolate; high volume; 50 ppm; 1 Day Protectant; wheat (Yuma); read-out: Disease Control, SI SEPTTR Type A Assay (50 ppm) 1 DP
measured.metric: pest or weed control at 50 ppm

compound: N#Cc1ccc(Oc2ccc(C(O)(Cn3cnnn3)C(F)(F)c3ccc(F)cc3F)nc2)cc1 (stereo not shown)
measured.metric: pest or weed control at 50 ppm
result: < 40%
--
compound: CC(C)C(O)(c1ccc(-c2ccc(OC(F)F)cc2)cn1)c1cncs1 (stereo not shown)
measured.metric: pest or weed control at 50 ppm
result: 80 to 100%
--
compound: CC(C)(C)C#CC(O)(c1cncnc1)c1ccc(Oc2ccc(Cl)cc2)cn1 (stereo not shown)
measured.metric: pest or weed control at 50 ppm
result: 80 to 100%
--
compound: CC(O)(Cc1cncnc1)c1ccc(-c2ccc(Cl)cc2)cn1 (stereo not shown)
measured.metric: pest or weed control at 50 ppm
result: 40 to 59%
--
compound: CC(C)(C)C#CC(O)(c1cncnc1)c1ccc(Oc2ccc(Cl)nc2)cn1 (stereo not shown)
measured.metric: pest or weed control at 50 ppm
result: < 40%
--
compound: CC(C)C(O)(c1cncnc1)c1ccc(-c2ccc(OC(F)(F)F)cc2)cn1 (stereo not shown)
measured.metric: pest or weed control at 50 ppm
result: 80 to 100%
--
compound: CC(C)(C)C(O)(c1cncnc1)c1ccc(-c2ccc(OCC(F)(F)F)cc2)cn1 (stereo not shown)
measured.metric: pest or weed control at 50 ppm
result: 80 to 100%
--
compound: CC(C)(C)C(O)(c1cncnc1)c1ccc(-c2cccnc2)cn1 (stereo not shown)
measured.metric: pest or weed control at 50 ppm
result: 60 to 79%
--
compound: CC(C)(C)C(O)(c1cncnc1)c1ccc(-c2ccccc2OC(F)(F)F)cn1 (stereo not shown)
measured.metric: pest or weed control at 50 ppm
result: 80 to 100%
--
compound: Cc1ccc(Oc2ccc(C(O)(C#CC(C)(C)C)c3cncnc3)nc2)nc1 (stereo not shown)
measured.metric: pest or weed control at 50 ppm
result: < 40%
--
compound: COc1ccc(-c2ccc(C(O)(c3cncnc3)C(C)(C)C)nc2)c(F)c1 (stereo not shown)
measured.metric: pest or weed control at 50 ppm
result: 80 to 100%
--
compound: CC(C)(C)c1ccc(-c2ccc(C(O)(c3cccnc3)C(C)(C)C)nc2)cc1 (stereo not shown)
measured.metric: pest or weed control at 50 ppm
result: 80 to 100%
--
compound: CC(C)(C)C(O)(c1cccnc1)c1ccc(-c2ccc(OC(F)F)cc2)cn1 (stereo not shown)
measured.metric: pest or weed control at 50 ppm
result: 80 to 100%
--
compound: CC(C)C(O)(c1cncnc1)c1ccc(Oc2ccc(C(F)(F)F)cn2)cn1 (stereo not shown)
measured.metric: pest or weed control at 50 ppm
result: 60 to 79%
--
compound: CC(C)(C)C(O)(c1cncnc1)c1ccc(-c2ccc(OC(F)(F)F)cn2)cn1 (stereo not shown)
measured.metric: pest or weed control at 50 ppm
result: 80 to 100%
--
compound: CC(C)(C)C(O)(c1cncnc1)c1ccc(-c2ccc(SC(F)(F)F)cc2)cn1 (stereo not shown)
measured.metric: pest or weed control at 50 ppm
result: 80 to 100%
--
compound: CC(C)(C)C(O)(Cn1cnnn1)c1ccc(Oc2ccc(Cl)cc2)cn1 (stereo not shown)
measured.metric: pest or weed control at 50 ppm
result: 60 to 79%
--
compound: CC(C)(C)C(O)(Cc1cncnc1)c1ccc(-c2ccc(OC(F)F)cc2)cn1 (stereo not shown)
measured.metric: pest or weed control at 50 ppm
result: 80 to 100%
--
compound: COc1ncncc1C(O)(c1ccc(-c2ccc(OC(F)(F)F)cc2)cn1)C(C)(C)C (stereo not shown)
measured.metric: pest or weed control at 50 ppm
result: 80 to 100%
--
compound: OC(c1ccc(-c2ccc(OC(F)(F)F)cc2)cn1)(c1cncs1)c1ccc(F)cc1F (stereo not shown)
measured.metric: pest or weed control at 50 ppm
result: 60 to 79%
--
compound: OC(C#CC1CC1)(c1cncnc1)c1ccc(Oc2ccc(Cl)cc2)cn1 (stereo not shown)
measured.metric: pest or weed control at 50 ppm
result: 80 to 100%
--
compound: OC(Cc1ccc(Cl)cc1Cl)(c1cncnc1)c1ccc(-c2ccc(OC(F)(F)F)cc2)cn1 (stereo not shown)
measured.metric: pest or weed control at 50 ppm
result: 80 to 100%
--
compound: CCC(C)(C)C(O)(c1cncnc1)c1ccc(-c2ccc(OC(F)(F)F)cc2)cn1 (stereo not shown)
measured.metric: pest or weed control at 50 ppm
result: 80 to 100%
--
compound: CC(O)(c1cncnc1)c1ccc(-c2ccc(OC(F)(F)F)cc2)cn1 (stereo not shown)
measured.metric: pest or weed control at 50 ppm
result: 80 to 100%
--
compound: CC(C)(C)C(O)(c1cncnc1)c1ccc(-c2ccc(C(F)(F)F)cc2)cn1 (stereo not shown)
measured.metric: pest or weed control at 50 ppm
result: 80 to 100%
--
compound: OC(Cc1ccc(Cl)cc1)(c1cncnc1)c1ccc(-c2ccc(OC(F)(F)F)cc2)cn1 (stereo not shown)
measured.metric: pest or weed control at 50 ppm
result: 80 to 100%
--
compound: CC(C)C(O)(c1cccnc1)c1ccc(Oc2ccc(Cl)cn2)cn1 (stereo not shown)
measured.metric: pest or weed control at 50 ppm
result: 80 to 100%
--
compound: OC(Cc1cncnc1)(c1ccc(-c2ccc(Cl)cc2)cn1)C1CCCC1 (stereo not shown)
measured.metric: pest or weed control at 50 ppm
result: 80 to 100%
--
compound: CC(C)(C)c1ccc(-c2ccc(C(O)(c3cncnc3)C(C)(C)C)nc2)cc1 (stereo not shown)
measured.metric: pest or weed control at 50 ppm
result: 80 to 100%
--
compound: COc1ncncc1C(O)(c1ccc(-c2ccc(C3(C#N)CC3)cc2)cn1)C(C)(C)C (stereo not shown)
measured.metric: pest or weed control at 50 ppm
result: 80 to 100%
--
compound: CCC(O)(c1cncnc1)c1ccc(Oc2cccc(Cl)n2)cn1 (stereo not shown)
measured.metric: pest or weed control at 50 ppm
result: 40 to 59%
--
compound: OC(Cc1ccc(Cl)cc1F)(Cn1cnnn1)c1ccc(Oc2ccc(Cl)cc2)cn1 (stereo not shown)
measured.metric: pest or weed control at 50 ppm
result: 80 to 100%
--
compound: OC(Cc1ccc(F)cc1F)(c1cncnc1)c1ccc(-c2ccc(OC(F)(F)F)cc2)cn1 (stereo not shown)
measured.metric: pest or weed control at 50 ppm
result: 80 to 100%
--
compound: OC(c1cncnc1)(c1ccc(-c2ccc(OC(F)(F)F)cc2)cn1)C1CC1 (stereo not shown)
measured.metric: pest or weed control at 50 ppm
result: 80 to 100%

Entry source: patent US10167300B2
